B1: LMNB1 (parent)
chain: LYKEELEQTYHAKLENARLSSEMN

Variants of: B1
Assay: protein stability index of a GFP-peptide fusion (GPS, HEK-293T) (PSI 1-6); higher = more stable;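 also: lentivirally expressed fusions sorted by FACS into six bins by GFP to DsRed ratio, PSI derived from sequencing read proportions per bin multiplied by bin number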
Details: c terminus: a fixed tail appended
# reported protein stability index; entries follow
Keep it simple and answer with nothing but the number.

# variant_designation, protein stability index
records = [
    ("Y2L", 3.04),
    ("K13H", 3.08),
    ("L14M", 3.09),
    ("M23N", 2.95),
]

Let us examine a further case.
Notebook: "N24Q" , protein stability index read as 3.04
